# Tested on: SK-OV-3 ovarian
# ASSAY_METHOD_TEXT: NCI tumour cell line growth inhibition, 48 h
For each record, write down the corresponding TGI.
The figure you give is taken to be in µM; do not add the unit.

Input: Dear colleague, please send me the reported TGI for CCCCCCCCCCCCCCCC(=O)NC1CCc2cc(O)c(O)c(O)c2-c2ccc(SC)c(=O)cc21 (stereo not given) when you can.
Output: 29.5

Input: Output TGI of Oc1cn(-c2ccc(Cl)cc2)nc1-c1nnc(Nc2ccccc2)o1
Output: 49.4

---

# Test system: COLO 205 colon
# ASSAY_METHOD_TEXT: NCI tumour cell line growth inhibition, 48 h
Binary classification by TGI, with 30 µM as an inclusive lower bound for label 1; all other cases are label 0.

Input: Answer whether TGI of Cc1c(C(=O)/C=C/c2ccc(O)cc2)nnn1-c1ccnc2c(C(F)(F)F)cccc12 is greater than or equal to 30 µM.
Output: label 1

Input: Say whether CCOC(=O)/C(C#N)=C(O)/C(=C/c1ccccc1Cl)NC(=O)c1ccccc1 shows TGI of 30 µM or more.
Output: label 1

Input: Check if TGI >= 30 µM (inclusive). Item: CCCCCCC(N)(CCCCCC)C(=O)Nn1c(C)ccc1C
Output: label 1

Input: Does the reported TGI for Cc1ccc2c(ccc3c[n+]4ccccc4c(C)c32)c1 fall at or above the 30 µM mark?
Output: label 0

Input: Does the reported TGI for N#C/C(=C\c1cn(-c2ccccc2)c2ccccc12)C(=O)O fall at or above the 30 µM mark?
Output: label 1

Input: Test whether the compound O=C1/C(=C/c2cccc([N+](=O)[O-])c2)CCCc2ccccc21 records TGI of 30 µM or higher.
Output: label 1

Input: Given the entry CCOc1ccc(C2c3[nH]c4ccccc4c3CCN2C(=O)c2cccs2)cc1 (stereo not given) , answer whether its TGI meets or surpasses 30 µM.
Output: label 1

Input: Confirm if TGI reported for the compound CC(SC1=CC(=O)c2c(Cl)ccc(O)c2C1=O)C(=O)O (stereo not given) is 30 µM or above.
Output: label 1

Input: Is it the case that CC(=O)OCC(=O)[C@@]1(O)[C@H](C)C[C@H]2[C@@H]3C=C(C)C4=Cc5c(cnn5-c5ccc(F)cc5)C[C@]4(C)[C@H]3[C@@H](O)C[C@@]21C has TGI reaching or exceeding 30 µM?
Output: label 0

The reported measurements were obtained from PubChem BioAssay (NCI).
